Substrate: CCO
Experiment: purified protein
Conditions: 100 mM glycine-NaOH pH 10, 2.4 mM NAD+, 30 °C, oxidation
Endpoint label: kcat/Km (M⁻¹ s⁻¹)
# unit: M⁻¹ s⁻¹ | format: bare number

Protein	Measured value
EtgB (Paracoccus denitrificans PD1222; H47N/T44S) (protein, pET16b, His-tagged, E. coli BL21 AI, Ni-NTA purified; homotetramer; zinc-dependent medium-chain alcohol dehydrogenase) MAKTMKAAVVREFGKPLTIDEVPVPEPGPGMIQVRIQASGVCHSDLNAAEGDWPVKPNPPFIPGHEGVGFVSAVGAGVKHVKEGDRVGVPWLYTACGHCRHCLGGWETLCESQLNTGYSVNGGFADYVVADPNYVGHLPKNVDFLDIAPVLCAGVTVYKGLKVTDTKPGDWVVISGIGGLGHMAVQYAKAMGMNVAAVDIDDEKLALARKLGATVTVNAATEPDPAAAIRKQTDGGAQGVLVTAVGRKAFEQAIGMVARGGTVALNGLPPGDFPLDIFGMVLNGITVRGSIVGTRLDLQESLDFAGDGKVKATVHKAKLEDINNIFGQMHKGQIEGRMVLDMAG	105000
EtgB (Paracoccus denitrificans PD1222; T44S) (protein, pET16b, His-tagged, E. coli BL21 AI, Ni-NTA purified; homotetramer; zinc-dependent medium-chain alcohol dehydrogenase) MAKTMKAAVVREFGKPLTIDEVPVPEPGPGMIQVRIQASGVCHSDLHAAEGDWPVKPNPPFIPGHEGVGFVSAVGAGVKHVKEGDRVGVPWLYTACGHCRHCLGGWETLCESQLNTGYSVNGGFADYVVADPNYVGHLPKNVDFLDIAPVLCAGVTVYKGLKVTDTKPGDWVVISGIGGLGHMAVQYAKAMGMNVAAVDIDDEKLALARKLGATVTVNAATEPDPAAAIRKQTDGGAQGVLVTAVGRKAFEQAIGMVARGGTVALNGLPPGDFPLDIFGMVLNGITVRGSIVGTRLDLQESLDFAGDGKVKATVHKAKLEDINNIFGQMHKGQIEGRMVLDMAG	33200
EtgB, NAD-dependent alcohol dehydrogenase (Pden_2367) (enzyme, Paracoccus denitrificans DSM 413, The enzyme holds zinc ions; also called EtgB WT; alcohol dehydrogenase EtgB; source: E. coli BL21 AI, purified (Ni-NTA, desalting, size exclusion on Superdex 200 Increase)) MAKTMKAAVVREFGKPLTIDEVPVPEPGPGMIQVRIQASGVCHTDLHAAEGDWPVKPNPPFIPGHEGVGFVSAVGAGVKHVKEGDRVGVPWLYTACGHCRHCLGGWETLCESQLNTGYSVNGGFADYVVADPNYVGHLPKNVDFLDIAPVLCAGVTVYKGLKVTDTKPGDWVVISGIGGLGHMAVQYAKAMGMNVAAVDIDDEKLALARKLGATVTVNAATEPDPAAAIRKQTDGGAQGVLVTAVGRKAFEQAIGMVARGGTVALNGLPPGDFPLDIFGMVLNGITVRGSIVGTRLDLQESLDFAGDGKVKATVHKAKLEDINNIFGQMHKGQIEGRMVLDMAG	201000

Proceed to the following item.
Entry EtgB (Paracoccus denitrificans PD1222; H47N) (protein, pET16b, His-tagged, E. coli BL21 AI, Ni-NTA purified; homotetramer; zinc-dependent medium-chain alcohol dehydrogenase) MAKTMKAAVVREFGKPLTIDEVPVPEPGPGMIQVRIQASGVCHTDLNAAEGDWPVKPNPPFIPGHEGVGFVSAVGAGVKHVKEGDRVGVPWLYTACGHCRHCLGGWETLCESQLNTGYSVNGGFADYVVADPNYVGHLPKNVDFLDIAPVLCAGVTVYKGLKVTDTKPGDWVVISGIGGLGHMAVQYAKAMGMNVAAVDIDDEKLALARKLGATVTVNAATEPDPAAAIRKQTDGGAQGVLVTAVGRKAFEQAIGMVARGGTVALNGLPPGDFPLDIFGMVLNGITVRGSIVGTRLDLQESLDFAGDGKVKATVHKAKLEDINNIFGQMHKGQIEGRMVLDMAG ; kcat/Km = 108000

The measured values listed here are drawn from paper PMC12214560.
